protein stability index: recorded values
B1: TMEM40 (parent)
chain: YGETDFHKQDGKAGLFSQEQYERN

- Variants of: B1
- Test summary: protein stability index of a GFP-peptide fusion (GPS, HEK-293T) (PSI 1-6); higher = more stable;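 also: lentivirally expressed fusions sorted by FACS into six bins by GFP to DsRed ratio, PSI derived from sequencing read proportions per bin multiplied by bin number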
- Condition label: c terminus: a fixed tail appended
Response field accepts a number only; no unit should be typed.

What value of protein stability index has been recorded for this entry: R23Y
4.02
